Target: T1, IL-10R2-Fc/His (UniProt Q08334 20-220, limits assumed)
T1 sequence (looked up): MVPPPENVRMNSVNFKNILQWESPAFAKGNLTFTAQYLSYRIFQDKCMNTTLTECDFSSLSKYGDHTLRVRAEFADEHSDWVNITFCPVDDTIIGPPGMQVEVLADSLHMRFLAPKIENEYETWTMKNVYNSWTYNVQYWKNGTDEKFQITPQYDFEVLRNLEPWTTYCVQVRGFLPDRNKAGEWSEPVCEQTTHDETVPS
Test: ELISA, IL-10R2-Fc/His coated
// reported Decreased fold of binding to ligand after Conjugating with S48 per item
Hi! Could you send only the number? It should be in fold, unit omitted.

Examples from the recorded data:
1. IL-10 Asn97Cys-S48 (ligand, human, UniProt P22301 19-178, looked up, S48 on Cys 97, mature) SPGQGTQSENSCTHFPGNLPNMLRDLRDAFSRVKTFFQMKDQLDNLLLKESLLEDFKGYLGCQALSEMIQFYLEEVMPQAENQDPDIKAHVNSLGECLKTLRLRLRRCHRFLPCENKSKAVEQVKNAFNKLQEKGIYKAMSEFDIFINYIEAYMTMKIRN | 4
2. IL-10 Arg107Cys-S48 (ligand, human, UniProt P22301 19-178, looked up, S48 on Cys 107, mature) SPGQGTQSENSCTHFPGNLPNMLRDLRDAFSRVKTFFQMKDQLDNLLLKESLLEDFKGYLGCQALSEMIQFYLEEVMPQAENQDPDIKAHVNSLGENLKTLRLRLRCCHRFLPCENKSKAVEQVKNAFNKLQEKGIYKAMSEFDIFINYIEAYMTMKIRN | 5
3. IL-10 Lys34Cys-S48 (ligand, human, UniProt P22301 19-178, looked up, S48 on Cys 34, mature; also called IL10-K34C-S48) SPGQGTQSENSCTHFPGNLPNMLRDLRDAFSRVCTFFQMKDQLDNLLLKESLLEDFKGYLGCQALSEMIQFYLEEVMPQAENQDPDIKAHVNSLGENLKTLRLRLRRCHRFLPCENKSKAVEQVKNAFNKLQEKGIYKAMSEFDIFINYIEAYMTMKIRN | 5

Q. Name the reported Decreased fold of binding to ligand after Conjugating with S48 value associated with the binder IL-10 Phe15Cys-S48 (ligand, human, UniProt P22301 19-178, looked up, S48 on Cys 15, mature) SPGQGTQSENSCTHCPGNLPNMLRDLRDAFSRVKTFFQMKDQLDNLLLKESLLEDFKGYLGCQALSEMIQFYLEEVMPQAENQDPDIKAHVNSLGENLKTLRLRLRRCHRFLPCENKSKAVEQVKNAFNKLQEKGIYKAMSEFDIFINYIEAYMTMKIRN
A. 3

Q. Fill blank: measured Decreased fold of binding to ligand after Conjugating with S48 of the binder IL-10 Arg102Cys-S48 (ligand, human, UniProt P22301 19-178, looked up, S48 on Cys 102, mature) SPGQGTQSENSCTHFPGNLPNMLRDLRDAFSRVKTFFQMKDQLDNLLLKESLLEDFKGYLGCQALSEMIQFYLEEVMPQAENQDPDIKAHVNSLGENLKTLCLRLRRCHRFLPCENKSKAVEQVKNAFNKLQEKGIYKAMSEFDIFINYIEAYMTMKIRN is ____.
A. 3

Q. Bench note: what Decreased fold of binding to ligand after Conjugating with S48 did IL-10 Glu122Cys-S48 (ligand, human, UniProt P22301 19-178, looked up, S48 on Cys 122, mature) SPGQGTQSENSCTHFPGNLPNMLRDLRDAFSRVKTFFQMKDQLDNLLLKESLLEDFKGYLGCQALSEMIQFYLEEVMPQAENQDPDIKAHVNSLGENLKTLRLRLRRCHRFLPCENKSKAVCQVKNAFNKLQEKGIYKAMSEFDIFINYIEAYMTMKIRN show?
A. 3

Q. What value of measured Decreased fold of binding to ligand after Conjugating with S48 is listed for IL-10 Phe36Cys-S48 (ligand, human, UniProt P22301 19-178, looked up, S48 on Cys 36, mature) SPGQGTQSENSCTHFPGNLPNMLRDLRDAFSRVKTCFQMKDQLDNLLLKESLLEDFKGYLGCQALSEMIQFYLEEVMPQAENQDPDIKAHVNSLGENLKTLRLRLRRCHRFLPCENKSKAVEQVKNAFNKLQEKGIYKAMSEFDIFINYIEAYMTMKIRN ?
A. 3
